# Tested on: P. berghei-ANKA-GFP-LucCON liver stage parasites in HepG2-A16-CD81EGFP cells
# experimental.details: P. berghei liver stage Pb-Luc assay, Method 1 (UCSD, 1536-well)
# Assay type: cell-based, Plasmodium berghei
# measurement.context: Plasmodium berghei, 48 h, P. berghei liver stage, 3 µM compound treatment (10 mM stocks), replicate 1, normalized, average of 2 wells on a 1536 well plate; read-out: PbLuc 3uM growth rep1
Short version: activity at 3 µM at least 70% is true, less is false.

Answered examples (5):
O=C(c1ccc([N+](=O)[O-])o1)N1CCN(c2nc3c(Cl)cccc3s2)CC1 | false
CCCC(C)C(=O)Nc1ncc(S(=O)(=O)c2ccc([N+](=O)[O-])cc2)s1 (stereo not drawn) | true
CCOC(=O)c1c(CN2CCN(c3ccccc3)CC2)oc2cc(Br)c(O)cc12 | true
CN(C)Cc1c(O)ccc2oc(Cc3ccccc3)cc12 | false
Cc1noc(C)c1CSc1nc2sc3c(c2c(=O)n1C)CCCC3 | false

Task: Check the entry COc1ccc(C2c3[nH]c4ccccc4c3C[C@H]3C(=O)N(C4CCN(Cc5ccccc5)CC4)CC(=O)N23)cc1OC (stereo partly drawn) : does activity at 3 µM equal or exceed 70%?
Output: false

Task: Subsequent entry: O=C(CCl)Nc1cccc(-c2cnc3ccccc3n2)c1
Output: true

Task: Thanks! And Cc1ccc(Sc2ccc(NC(=O)CCl)cc2)cc1C ?
Output: true

Task: Param item: O=C(Nc1ccc(S(=O)(=O)N2CCOCC2)cc1)c1cc(-c2cc(Cl)ccc2O)n[nH]1
Output: false

Task: Another molecule to look at: Nc1nonc1-n1nnc(C(=O)N/N=C/c2ccc(Br)cc2)c1-c1ccc2c(c1)OCO2
Output: true

Task: Also check CCC(=O)N1CCc2cc(Br)cc(S(=O)(=O)N3CCCCC3CC)c21 (stereo not drawn)
Output: true

Task: What do you get for COc1ccc(NC(=O)C(c2ccc(Cl)cc2)C(C)C)cn1 (stereo not drawn) ?
Output: true

Task: // same read-out, input: C/C(=N\Nc1nc(-c2ccccc2O)nc2ccccc12)c1ccccc1
Output: true

Task: Check COc1ccc(OC)c(-n2c(S)nnc2-c2cccc(O)c2)c1 too.
Output: true

Task: Likewise for N#Cc1c(N2CCN(c3ccc(F)cc3)CC2)nc(N)c2c(N)nc3c(c12)CC(=O)N3C1CC1 ?
Output: false

Task: Also O=C(CSc1nc(Nc2ccccc2)nc(N2CCOCC2)n1)Nc1cc(Cl)ccc1O ?
Output: false

Task: Query N#Cc1ccc(NC(=O)Nc2ccc(Cl)cc2)cc1 next
Output: false

* * *

Please go through the items and note down their HepG2 viability signal, 1 uM, repeat 1.
# Tested on: HepG2-A16-CD81EGFP cells
# measurement.context: nominal 1 uM (10 mM stock); […] for 15 mM, 1.2 uM for 12 mM, 2 uM for 20 mM stock; average of 2 wells; repeat 1
Give bare numbers, in %.

// below: answered compounds
CC1=C[C@@H](CNCc2cccnc2)[C@H](C(C)C)C[C@H]1Cc1nnc(-c2ccc([N+](=O)[O-])cc2)o1 | 104.31
COc1ccc(-c2cc(C(F)(F)F)nc(SCCC(=O)Nc3cc(C)ccc3O)n2)cc1 | 98.35
COc1ccc(C2Sc3ccccc3N=C3C2=C(O)c2ccccc23)c(OC)c1OC (stereo not shown) | 40.50

Consider the record given below.
Task: # returns recorded HepG2 viability signal, 1 uM, repeat 1 (system: HepG2-A16-CD81EGFP cells) for COc1ccc(C2C=C(c3ccc(Cl)cc3)Nc3nc(-c4ccc(Cl)cc4)nn32)cc1 (stereo not shown)
Output: 97.18
